# Tested on: MS2 coat protein
# experiment_notes: apparent KD of MS2 coat protein; designed switch direction (-1 OFF switch, 1 ON switch): 1; higher = weaker reporter binding
# condition_description: Eterna round: R95; input ligand: FMN 200 uM
Where apparent KD of MS2 coat protein equals or exceeds 70 nM, the correct label is met; where it does not, the label is not met.

Solved cases (5 shown):
{"item_sequence": "GUAGCAUGCAGCGAGGAUAUUCAUAUUAAAACAUGAGGAUCACCCAUGUAGGCCAAAAGGCCUUGGGAGAAGGCGCACAUGCUAC [Xeonanis - 20] (puzzle: Same State 2)", "classification": "not met"}
{"item_sequence": "AGUCCAGCCUAAGCUGGACAAAAGCAUGUACAUGAGGAUCACCCAUGUUCAUGUACAAGCUUUUUGCUCGUCUUAAA [Mat - hsa-mir-208a - Mod of JL - 54] (puzzle: Sensor for hsa-mir-208a)", "classification": "met"}
{"item_sequence": "AUUAAACAUGAGGAUCACCCAUGUCUACAAAGUCGAGGAUAUGGGCAAAUAAAAUAAGAACCAGAAGGCGAAUAAU [salish99_ss1_r3_072] (puzzle: Same State 1)", "classification": "not met"}
{"item_sequence": "GAGAAUCUAUCUCAGGAUAUCAUGUCAAAGACAUGAGGAUCACCCAUGUACCAGGAAACUGGUUAUGAGAAGGGAGAUAGAUUCA [Mat - Same State 2 - Mod - D35] (puzzle: Same State 2)", "classification": "met"}
{"item_sequence": "AGUCCAGCCUGAGCUGGACAAAAGCAUGUACAUGAGGAUCACCCAUGUCAUGUACAAGUUUUUUGCUCGUCUUAAUA [Zipper 49 - 12] (puzzle: Sensor for hsa-mir-208a)", "classification": "not met"}

Inquiry: Record UCAAGGUUUUUGCUCGUUUUAUGUGUUGAACAUGAGGAUCACCCAUGUAUUGUACGAUCCAGUUAGAUGGUGGUUUG [JR_SHM208A_Sub042] (puzzle: Sensor for hsa-mir-208a) ; criterion: apparent KD of MS2 coat protein no lower than 70 nM. Met?
Reply text: met

Inquiry: Record AAGAAACAUGAGGAUCACCCAUGUCGAAAUAACACAGGAUAUCGCACGACUACGGUGCGGCGAGAAGGGUGAGGAA [Estere] (puzzle: Same State 1) ; criterion: apparent KD of MS2 coat protein no lower than 70 nM. Met?
Reply text: not met

Inquiry: Record AAAAAACAUGAGGAUCACCCAUGUCAAAAGACAUGAGGAUAUGUACAGACUUCGGUCUGUACAGAAGGCAUGAAAA [salish99_ss1_r3_093] (puzzle: Same State 1) ; criterion: apparent KD of MS2 coat protein no lower than 70 nM. Met?
Reply text: not met

###

# Tested on: MS2 coat protein
# experiment_notes: apparent KD of MS2 coat protein, switch ON state; designed switch direction (-1 OFF switch, 1 ON switch): -1; higher = weaker reporter binding
# condition_description: FMN input: 0 or 200 uM; Eterna round: R93 (includes R88 designs)
Record form. Attribute: apparent KD of MS2 coat protein. Fill in for each entry.
Quick note: unit goes after the number.

The following sequences each have a reported value; give each one's apparent KD of MS2 coat protein.
1. AAGAAGUGAGGAUAUACAUGAGGAUCACCCAUGUAAAAGAAAGAAAGGGAAAAGAAAAGUAGAAGGCACAAGAA [Usermaatre-setpenre-meryamun Ramesses VII]
2. AAAAAGAGAGGAUAUACAUGAGGAUCACCCAUGUGACAUAAAAUAAAUAAAAUAAAGUGUAGAAGGCUCAAAAA [65%, Moding Exclusion3-cac2, 21]
3. AAAUAGUUAGGAUAUACAUGAGGAUCACCCAUGUGGACUUAUGGCGAAUAAUUUAGUGGUAGAAGGGACUAAAA [EX2 Malc#28]
4. AUAAAACAUGAGGAUCACCCAUGUGAGGAUAUCUAAAAAGAAAGAAAAAAAAAAAAAAAGAGAAGGCACAAUAA [Amethyst 45]

Reply text:
["0.0365 µM", "0.0417 µM", "0.0629 µM", "0.0277 µM"]

// provenance: the supplement of paper PMC9170038
